- Tested system: T1, CC-Di-B (N-terminal acetyl (Ac-); C-terminal amide (printed -NH))
- T1 construct: Free module
- T1 peptide: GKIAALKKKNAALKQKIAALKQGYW
- Measurement description: CD-monitored thermal denaturation over a range of peptide concentrations, extrapolated to 20 °C; dissociation of the heterodimer (two-state)
Property label: Kd (nM)
The response must be a number in nM with no trailing unit.

Query: Provide Kd value for the following binder: Ac-GEIAALEKENAALEQEIAALEQGWW-NH2 (Free module) [CC-Di-A]
Response: 58.3
